Target: T1, Lsb1, P53281
T1 sequence (P53281 45-122, looked up): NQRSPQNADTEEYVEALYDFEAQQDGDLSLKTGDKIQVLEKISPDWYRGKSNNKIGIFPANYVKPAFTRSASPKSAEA
Experiment: SPOT array
Details: median of control spots 388
Overview of recorded SPOT intensity for various binders
MEASURED_METRIC: SPOT intensity

[
  {
    "BINDER": "TKRKRPARLIFYDSK",
    "OBSERVED": 4
  },
  {
    "BINDER": "RRTRLRPPTPLSQLL",
    "OBSERVED": 215
  },
  {
    "BINDER": "QQEQNTPPLPPKPKS",
    "OBSERVED": 0
  },
  {
    "BINDER": "IKKRNKIRLPSGSPE",
    "OBSERVED": 104
  },
  {
    "BINDER": "LLIRWLILMPLVGSR",
    "OBSERVED": 47
  },
  {
    "BINDER": "MSPLGAPPPPPHKDH",
    "OBSERVED": 0
  },
  {
    "BINDER": "VGFRLALKFPSRITG",
    "OBSERVED": 452
  },
  {
    "BINDER": "GATNNAPTLPKRKNP",
    "OBSERVED": 64
  },
  {
    "BINDER": "RKLRTVPGVPLIHLT",
    "OBSERVED": 0
  },
  {
    "BINDER": "SGVRLPAPPPPPRRG",
    "OBSERVED": 0
  },
  {
    "BINDER": "EQEEIAPSLPSRNSI",
    "OBSERVED": 20
  },
  {
    "BINDER": "LRWRHKFFLPAIAAI",
    "OBSERVED": 0
  },
  {
    "BINDER": "APPLPPTAPPPPSLP",
    "OBSERVED": 0
  },
  {
    "BINDER": "GPPPPLPPPLFPSSS",
    "OBSERVED": 64
  },
  {
    "BINDER": "HVRRSILALPLGVLL",
    "OBSERVED": 47
  }
]

Data provenance is paper PMC2756588.
